Molecular target: NLRP3 inflammasome (Homo sapiens)
Sequence (Q96P20 whole entry): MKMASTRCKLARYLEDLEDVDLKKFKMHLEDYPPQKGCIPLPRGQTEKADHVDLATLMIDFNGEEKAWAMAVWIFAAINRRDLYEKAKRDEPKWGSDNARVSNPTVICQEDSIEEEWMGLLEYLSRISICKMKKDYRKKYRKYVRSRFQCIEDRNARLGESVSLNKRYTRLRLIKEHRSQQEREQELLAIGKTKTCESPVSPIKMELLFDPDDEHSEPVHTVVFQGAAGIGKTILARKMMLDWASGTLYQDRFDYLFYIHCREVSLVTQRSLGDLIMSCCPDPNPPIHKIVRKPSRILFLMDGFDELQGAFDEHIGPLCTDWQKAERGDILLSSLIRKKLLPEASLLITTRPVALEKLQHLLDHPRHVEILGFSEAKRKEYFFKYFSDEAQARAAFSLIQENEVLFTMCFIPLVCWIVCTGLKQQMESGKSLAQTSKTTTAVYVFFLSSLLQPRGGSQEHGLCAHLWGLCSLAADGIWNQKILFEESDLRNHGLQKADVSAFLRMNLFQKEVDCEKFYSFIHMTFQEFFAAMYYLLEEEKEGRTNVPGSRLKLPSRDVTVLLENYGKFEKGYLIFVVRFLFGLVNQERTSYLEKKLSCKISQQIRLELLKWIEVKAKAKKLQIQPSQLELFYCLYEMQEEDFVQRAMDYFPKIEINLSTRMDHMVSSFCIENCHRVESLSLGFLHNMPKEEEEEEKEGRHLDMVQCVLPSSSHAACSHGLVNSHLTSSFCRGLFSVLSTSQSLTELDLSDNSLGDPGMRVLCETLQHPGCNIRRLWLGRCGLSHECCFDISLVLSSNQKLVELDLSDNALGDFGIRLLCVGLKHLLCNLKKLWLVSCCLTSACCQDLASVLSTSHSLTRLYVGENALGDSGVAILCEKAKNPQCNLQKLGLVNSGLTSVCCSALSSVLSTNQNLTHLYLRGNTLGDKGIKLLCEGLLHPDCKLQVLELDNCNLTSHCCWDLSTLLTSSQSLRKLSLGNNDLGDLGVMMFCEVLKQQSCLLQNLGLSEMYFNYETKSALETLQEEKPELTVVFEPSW
Assay: NLRP3 inflammasome activation in LPS-primed, nigericin-activated THP1 macrophages, IL-1β AlphaLISA
Conditions: PMA-differentiated, 1 hr compound, Nigericin 6.7 uM 3 hrs, IL-1β in supernatant
Catalogue of IC50 readings, one per entry.

Here are 5 compounds together with their reported answers.
Form field - read-out: IC50; system: NLRP3 inflammasome (Homo sapiens); submitted item: `Cc1cc(C(F)(F)F)ccc1-c1nnc(N[C@@H]2CCCN(C)C2)c2c1cnn2C`
10 to 100 nM

Then what about the compound `CN1CCC[C@@H](N(C)c2nnc(-c3ccc(C#N)cc3O)c3ccn(C)c23)C1` ?
500 to 1000 nM

Then what about the compound `CN1CCC[C@@H](N(C)c2nnc(-c3ccc(C(F)(F)F)cc3)c3c2cnn3C)C1` ?
≥ 10000 nM

Then what about the compound `CN1CCC[C@@H](Nc2nnc(-c3ccc(C(F)(F)F)cn3)c3ccn(C)c23)C1` ?
100 to 500 nM

Then what about the compound `CN1CCC[C@@H](Oc2nnc(-c3ccc(F)cc3O)c3ccn(C)c23)C1` ?
100 to 500 nM

Further cases:
Form field - read-out: IC50; system: NLRP3 inflammasome (Homo sapiens); submitted item: `CN1CCC[C@@H](Nc2nnc(-c3ccc(C(F)(F)F)cc3)c3cnn(C)c23)C1`
10 to 100 nM

Then what about the compound `Cn1ccc2c(-c3ccc(C#N)cc3O)nnc(N[C@H]3CN(CCF)CC(F)(F)C3)c21` ?
≥ 10000 nM

Then what about the compound `Cc1cc2c(-c3ccc(C(F)(F)F)cc3)nnc(N[C@@H]3CCCN(C)C3)c2[nH]1` ?
< 10 nM

Then what about the compound `Cn1ccc2c(-c3ccc(C#N)cc3O)nnc(N[C@@H]3CCCN(CC(C)(C)O)C3)c21` ?
10 to 100 nM

* * *

Catalogue of IC50 readings, one per entry.
Test system: IL-6
Assay: IL-6 in supernatants of LPS-primed, nigericin-treated THP1 macrophages, Hu IL-6 AlphaLISA
Assay type: cell-based
Details: Homo sapiens, THP-1, PMA-differentiated, 1 hr compound, Nigericin 6.7 uM 3 hrs, IL-6 in supernatant

Form field - read-out: IC50; system: IL-6; submitted item: `CN1CCC[C@@H](N(C)c2nnc(-c3ccc(C#N)cc3O)c3ccn(C)c23)C1`
≥ 10 µM

Then what about the compound `CN1CCC[C@@H](Nc2nnc(-c3ccc(Cl)cc3)c3cc[nH]c23)C1` ?
1 to 5 µM

Then what about the compound CN1CCC[C@@H](Nc2nnc(-c3ccc(C(F)(F)F)cc3)c3[nH]ccc23)C1 (single isomer, unassigned) ?
≥ 10 µM

Then what about the compound `Cn1ccc2c(-c3ccc(C#N)cc3O)nnc(N[C@@H]3CCCN(CCF)C3)c21` ?
≥ 10 µM

Then what about the compound `Cn1ncc2c(-c3ccc(C(F)(F)F)cc3)nnc(N[C@@H]3CCCN(C4CC4)C3)c21` ?
≥ 10 µM

Then what about the compound CN1CCCC(Cc2nnc(-c3ccc(C(F)(F)F)cc3)c3cc[nH]c23)C1 (centres unmarked) ?
1 to 5 µM

Then what about the compound `CN1CCC[C@@H](N(C)c2nnc(-c3ccc(F)cc3O)c3cc[nH]c23)C1` ?
≥ 10 µM

# input for lookup
Form field - read-out: IC50; system: IL-6; submitted item: `Cc1cn(C)c2c(N[C@@H]3CCCN(C)C3)nnc(-c3ccc(C(F)(F)F)cc3)c12`
≥ 10 µM
